molecular target: Tyrosine-protein kinase Fer (Homo sapiens) (UniProt P16591); test: Inhibition of FER at 1 uM
Sequence (P16591 whole entry, looked up): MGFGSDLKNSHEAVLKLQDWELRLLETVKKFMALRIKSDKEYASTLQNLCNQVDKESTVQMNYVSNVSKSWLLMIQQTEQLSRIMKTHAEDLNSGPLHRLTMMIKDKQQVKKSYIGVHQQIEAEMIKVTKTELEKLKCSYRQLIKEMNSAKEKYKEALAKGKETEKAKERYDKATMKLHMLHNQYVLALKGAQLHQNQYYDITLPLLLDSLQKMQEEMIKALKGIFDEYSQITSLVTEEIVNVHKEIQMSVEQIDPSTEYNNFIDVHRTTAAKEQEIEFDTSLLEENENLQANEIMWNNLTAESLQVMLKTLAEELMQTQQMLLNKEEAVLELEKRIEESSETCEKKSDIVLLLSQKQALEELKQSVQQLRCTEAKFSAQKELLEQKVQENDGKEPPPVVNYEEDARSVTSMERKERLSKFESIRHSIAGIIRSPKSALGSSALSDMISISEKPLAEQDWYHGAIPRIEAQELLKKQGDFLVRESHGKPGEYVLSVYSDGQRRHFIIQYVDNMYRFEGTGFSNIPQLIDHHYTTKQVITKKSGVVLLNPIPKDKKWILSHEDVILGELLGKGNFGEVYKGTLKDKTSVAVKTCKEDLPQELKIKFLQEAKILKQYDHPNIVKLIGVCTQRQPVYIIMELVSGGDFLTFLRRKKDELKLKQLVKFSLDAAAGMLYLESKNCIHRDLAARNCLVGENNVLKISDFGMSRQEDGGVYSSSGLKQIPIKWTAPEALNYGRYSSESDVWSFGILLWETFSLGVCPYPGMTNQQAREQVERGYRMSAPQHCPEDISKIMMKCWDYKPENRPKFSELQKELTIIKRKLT
measuredProperty: inhibition

compoundString	result
CC(=O)N1CCN(c2cc(-c3cnc4c(c3)N(Cc3cc(Cl)ccc3C(F)(F)F)CCN4)ccn2)CC1	< 50%
CN1CCN(c2ccc(-c3cnc4c(c3)N(Cc3c(F)ccc(F)c3Cl)CCN4)cn2)CC1	< 50%
CN1CCN(c2ccc(-c3cnc4c(c3)N(Cc3cc(Cl)ccc3Cl)CCN4)cn2)CC1	< 50%
COC1CCN(C(=O)c2ccc(-c3cnc4c(c3)N(Cc3cc(Cl)ccc3C(F)(F)F)CCN4)cc2)CC1	< 50%
FC(F)(F)c1ccc(Cl)cc1CN1CCNc2ncc(-c3ccnc(N4CCNCC4)c3)cc21	97%

----------
molecular target: Fibroblast growth factor receptor 1 (Homo sapiens) (UniProt P11362); experiment: Inhibition of FGFR1 at 1 uM
Sequence (P11362 22-822 limits assumed): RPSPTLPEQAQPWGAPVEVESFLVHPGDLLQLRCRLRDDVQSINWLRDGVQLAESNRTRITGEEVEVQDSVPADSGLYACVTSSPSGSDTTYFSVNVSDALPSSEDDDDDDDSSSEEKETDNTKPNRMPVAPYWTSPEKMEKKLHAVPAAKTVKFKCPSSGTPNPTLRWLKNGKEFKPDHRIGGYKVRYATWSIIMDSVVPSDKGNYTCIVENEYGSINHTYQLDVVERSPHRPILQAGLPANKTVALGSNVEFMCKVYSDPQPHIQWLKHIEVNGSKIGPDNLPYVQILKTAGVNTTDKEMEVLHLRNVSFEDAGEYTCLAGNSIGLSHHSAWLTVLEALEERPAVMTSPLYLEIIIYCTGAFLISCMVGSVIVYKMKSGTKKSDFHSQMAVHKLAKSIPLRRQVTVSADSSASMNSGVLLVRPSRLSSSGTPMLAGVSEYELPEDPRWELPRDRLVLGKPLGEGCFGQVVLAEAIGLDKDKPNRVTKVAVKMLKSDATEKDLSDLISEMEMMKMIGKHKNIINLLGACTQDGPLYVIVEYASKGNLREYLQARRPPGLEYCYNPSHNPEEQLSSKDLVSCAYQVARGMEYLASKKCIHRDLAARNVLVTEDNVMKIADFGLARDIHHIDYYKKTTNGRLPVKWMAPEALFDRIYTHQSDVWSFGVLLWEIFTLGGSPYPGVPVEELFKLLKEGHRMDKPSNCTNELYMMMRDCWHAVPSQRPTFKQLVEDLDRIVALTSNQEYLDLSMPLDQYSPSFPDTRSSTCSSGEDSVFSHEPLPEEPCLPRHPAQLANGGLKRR
measuredProperty: inhibition

compoundString	result
O=C(c1ccc(-c2cnc3c(c2)N(Cc2cc(Cl)ccc2C(F)(F)F)CCN3)cc1)N1CCC(N2CCCC2)CC1	< 50%
CC(=O)N1CCN(c2cc(-c3cnc4c(c3)N(Cc3cc(Cl)ccc3C(F)(F)F)CCN4)ccn2)CC1	< 50%
O=C(O)c1ccc(-c2cnc3c(c2)N(Cc2cc(Cl)ccc2C(F)(F)F)CCN3)cc1	< 50%
O=C(c1ccc(-c2cnc3c(c2)N(Cc2cc(Cl)ccc2C(F)(F)F)CCN3)cc1)N1CCCCC1	< 50%
CN1CCN(c2ccc(-c3cnc4c(c3)N(Cc3cc(Cl)ccc3Cl)CCN4)cn2)CC1	< 50%
CN1CCN(c2ccc(-c3cnc4c(c3)N(Cc3cc(F)ccc3F)CCN4)cn2)CC1	< 50%
CN1CCN(c2ccc(-c3cnc4c(c3)N(Cc3c(F)ccc(F)c3Cl)CCN4)cn2)CC1	< 50%
COC1CCN(C(=O)c2ccc(-c3cnc4c(c3)N(Cc3cc(Cl)ccc3C(F)(F)F)CCN4)cc2)CC1	< 50%
FC(F)(F)c1ccc(Cl)cc1CN1CCNc2ncc(-c3ccnc(N4CCNCC4)c3)cc21	< 50%
CN1CCN(c2ccc(-c3cnc4c(c3)N(Cc3cc(Cl)ccc3C(F)(F)F)CCN4)cn2)CC1	< 50%

----------
biological target: Non-receptor tyrosine-protein kinase TYK2 (Homo sapiens); assay: Inhibition of TYK2 JH1 catalytic domain at 1 uM
Each entry below carries its recorded inhibition.

compoundString	displayUnit	comparisonOperator	inhibition
O=C(c1ccc(-c2cnc3c(c2)N(Cc2cc(Cl)ccc2C(F)(F)F)CCN3)cc1)N1CCCCC1	%	<	50
FC(F)(F)c1ccc(Cl)cc1CN1CCNc2ncc(-c3ccnc(N4CCNCC4)c3)cc21	%	=	72
CC(=O)N1CCN(c2cc(-c3cnc4c(c3)N(Cc3cc(Cl)ccc3C(F)(F)F)CCN4)ccn2)CC1	%	=	72
O=C(O)c1ccc(-c2cnc3c(c2)N(Cc2cc(Cl)ccc2C(F)(F)F)CCN3)cc1	%	<	50
CN1CCN(c2ccc(-c3cnc4c(c3)N(Cc3cc(Cl)ccc3C(F)(F)F)CCN4)cn2)CC1	%	=	79
CN1CCN(c2ccc(-c3cnc4c(c3)N(Cc3cc(F)ccc3F)CCN4)cn2)CC1	%	<	50

----------
test system: Hepatocyte growth factor receptor (Homo sapiens), P08581 [M1250T]; test: Inhibition of MET M1250T mutant at 1 uM
Sequence (P08581 whole entry M1250T): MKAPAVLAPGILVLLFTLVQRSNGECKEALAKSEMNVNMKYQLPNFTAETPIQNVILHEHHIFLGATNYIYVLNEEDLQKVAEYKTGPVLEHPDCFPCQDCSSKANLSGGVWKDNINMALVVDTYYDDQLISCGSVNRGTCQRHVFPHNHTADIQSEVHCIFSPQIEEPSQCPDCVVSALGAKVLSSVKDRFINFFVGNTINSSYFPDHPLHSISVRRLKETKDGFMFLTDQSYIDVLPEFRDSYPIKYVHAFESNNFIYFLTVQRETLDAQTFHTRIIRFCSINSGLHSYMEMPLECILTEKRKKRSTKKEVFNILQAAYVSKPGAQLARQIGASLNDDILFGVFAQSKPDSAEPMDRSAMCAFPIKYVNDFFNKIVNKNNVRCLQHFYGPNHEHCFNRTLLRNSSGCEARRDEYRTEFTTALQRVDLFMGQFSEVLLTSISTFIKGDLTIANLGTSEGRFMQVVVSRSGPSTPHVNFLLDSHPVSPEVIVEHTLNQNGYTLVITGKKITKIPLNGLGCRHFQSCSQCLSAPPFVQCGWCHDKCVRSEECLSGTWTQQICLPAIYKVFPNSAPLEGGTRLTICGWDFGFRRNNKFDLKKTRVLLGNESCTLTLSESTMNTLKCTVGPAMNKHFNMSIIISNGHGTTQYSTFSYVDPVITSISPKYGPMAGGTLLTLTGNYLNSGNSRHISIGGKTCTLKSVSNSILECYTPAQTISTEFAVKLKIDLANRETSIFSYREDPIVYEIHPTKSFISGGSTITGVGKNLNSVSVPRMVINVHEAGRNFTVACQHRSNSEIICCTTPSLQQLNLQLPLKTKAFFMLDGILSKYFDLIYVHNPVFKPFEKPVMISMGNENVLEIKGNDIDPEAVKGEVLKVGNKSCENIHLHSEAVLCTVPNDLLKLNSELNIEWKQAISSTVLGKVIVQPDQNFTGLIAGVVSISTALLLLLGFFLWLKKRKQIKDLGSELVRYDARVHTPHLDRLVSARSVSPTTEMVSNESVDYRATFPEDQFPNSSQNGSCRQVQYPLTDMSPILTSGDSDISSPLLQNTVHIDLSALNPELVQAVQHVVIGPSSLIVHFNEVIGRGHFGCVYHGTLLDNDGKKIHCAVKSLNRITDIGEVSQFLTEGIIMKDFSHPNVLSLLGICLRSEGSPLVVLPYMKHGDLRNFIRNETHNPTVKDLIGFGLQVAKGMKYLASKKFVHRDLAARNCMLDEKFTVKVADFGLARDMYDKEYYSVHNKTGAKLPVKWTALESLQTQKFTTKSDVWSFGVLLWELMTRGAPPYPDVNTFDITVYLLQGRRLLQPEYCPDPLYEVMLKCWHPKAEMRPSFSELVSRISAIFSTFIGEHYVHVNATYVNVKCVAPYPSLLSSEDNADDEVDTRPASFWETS
Each entry below carries its recorded inhibition.

compoundString	inhibition
FC(F)(F)c1ccc(Cl)cc1CN1CCNc2ncc(-c3ccnc(N4CCNCC4)c3)cc21	86%
CN1CCN(c2ccc(-c3cnc4c(c3)N(Cc3cc(Cl)ccc3C(F)(F)F)CCN4)cn2)CC1	< 50%
CN1CCN(c2ccc(-c3cnc4c(c3)N(Cc3cc(Cl)ccc3Cl)CCN4)cn2)CC1	< 50%
CC(=O)N1CCN(c2cc(-c3cnc4c(c3)N(Cc3cc(Cl)ccc3C(F)(F)F)CCN4)ccn2)CC1	< 50%
CN1CCN(c2ccc(-c3cnc4c(c3)N(Cc3cc(F)ccc3F)CCN4)cn2)CC1	< 50%
CN1CCN(c2ccc(-c3cnc4c(c3)N(Cc3c(F)ccc(F)c3Cl)CCN4)cn2)CC1	82%
